Cited source: patent US7973069B2

Test system: HCV replicon
Type: cell-based
Quick reference: IC50 of the listed items.
READOUT_LABEL: IC50

[[record]]
structure_as_smiles = "CCOc1ccc2c(c1)c(C#N)c(-c1ccc(NC(=O)OC(C)C)cc1)n2C1CCC1"
experimental_value = "< 0.5 µM"

[[record]]
structure_as_smiles = "COc1ccc2c(C#N)c(-c3ccc(NC(=O)C4CC4)cc3)n(CC3CC3)c2c1"
experimental_value = "0.5 to 2 µM"

[[record]]
structure_as_smiles = "CC(C)OC(=O)Nc1ccc(-c2c(C#N)c3ccc(OCCCN4CCOCC4)cc3n2C2CCC2)cc1"
experimental_value = "0.5 to 2 µM"

[[record]]
structure_as_smiles = "CCOc1ccc2c(C#N)c(-c3ccc(NP(=O)(OC)OC)cc3)n(CC)c2c1"
experimental_value = "0.5 to 2 µM"


---

Quick reference: WT-PV CPE (1 μM)* of the listed items.
Test system: wild-type poliovirus
Assay type: cell-based
CONDITION_PARAMETERS: 1 μM compound; HeLa cells infected with wild-type poliovirus at MOI 0.1, treated one day; CPE score
READOUT_LABEL: WT-PV CPE (1 μM)*

[[record]]
compound = "COc1ccc2c(C#N)c(C)n(-c3ccc4c(c3)OCO4)c2c1 [Compound 24]"
experimental_value = 2

[[record]]
compound = "CCn1cc(C#N)c2ccc(OC(C)C)cc21 [Compound 10]"
experimental_value = 2

[[record]]
compound = "CCn1c(-c2ccc(OC)cc2)c(C#N)c2ccc(OC)cc21 [Compound 19]"
experimental_value = 1

[[record]]
compound = "COc1ccc(-n2cc(C#N)c3ccc(OC)cc32)cc1 [Compound 4]"
experimental_value = 1


---

Quick reference: IC50 of the listed items.
Tested on: HCV replicon
Type: cell-based
READOUT_LABEL: IC50

[[record]]
molecule = "N#Cc1c(-c2ccc(NS(=O)(=O)C3CC3)cc2)n(C2CCC2)c2cc(OCC3CCCO3)ccc12 (stereo not shown)"
readout_label = "IC50"
experimental_value = "< 0.5 µM"

[[record]]
molecule = "CCOc1ccc2c(C#N)c(-c3ccc(NC(=O)OCC(C)(C)C)cc3)n(CC3CC3)c2c1"
readout_label = "IC50"
experimental_value = "< 0.5 µM"

[[record]]
molecule = "CCCCNC(=O)Nc1cccc(-c2c(C#N)c3ccc(OCCCN4CCOCC4)cc3n2CC)c1"
readout_label = "IC50"
experimental_value = "0.5 to 2 µM"

[[record]]
molecule = "CCCS(=O)(=O)Nc1ccc(-c2c(C#N)c3ccc(OCC)cc3n2C2CCCC2)cc1"
readout_label = "IC50"
experimental_value = "0.5 to 2 µM"

[[record]]
molecule = "CC(C)OC(=O)Nc1ccc(-c2c(C#N)c3ccc(OCCNC4CC4)cc3n2C2CCC2)cc1"
readout_label = "IC50"
experimental_value = "< 0.5 µM"

[[record]]
molecule = "CCn1c(-c2ccc(NS(=O)(=O)C3CC3)c(F)c2)c(C#N)c2ccc(OC)cc21"
readout_label = "IC50"
experimental_value = "> 2 µM"

[[record]]
molecule = "CCn1c(-c2cccc(NC(=O)NCCCl)c2)c(C#N)c2ccc(OCCCN3CCOCC3)cc21"
readout_label = "IC50"
experimental_value = "0.5 to 2 µM"

[[record]]
molecule = "CCN(CC)CCOc1ccc2c(C#N)c(-c3ccc(NC(=O)OC(C)C)cc3)n(C3CCC3)c2c1"
readout_label = "IC50"
experimental_value = "< 0.5 µM"

[[record]]
molecule = "CCOc1ccc2c(C#N)c(-c3ccc(N)cc3)n(C3CC3)c2c1"
readout_label = "IC50"
experimental_value = "0.5 to 2 µM"

[[record]]
molecule = "CCOc1ccc2c(C#N)c(-c3ccc(NC(=O)NC(C)C)cc3)n(CC3CC3)c2c1"
readout_label = "IC50"
experimental_value = "< 0.5 µM"

[[record]]
molecule = "CCCNC(=O)Nc1ccc(-c2c(C#N)c3ccc(OC(F)F)cc3n2C2CCC2)cc1"
readout_label = "IC50"
experimental_value = "0.5 to 2 µM"

[[record]]
molecule = "COc1ccc2c(c1)c(C#N)c(-c1ccc(NC(=O)NC3CCCC3)cc1)n2C1CCC1"
readout_label = "IC50"
experimental_value = "0.5 to 2 µM"

[[record]]
molecule = "CC(C)n1c(-c2ccc(NS(=O)(=O)C3CC3)cc2)c(C#N)c2ccc(OC(F)F)cc21"
readout_label = "IC50"
experimental_value = "< 0.5 µM"

[[record]]
molecule = "CCOc1ccc2c(c1)c(C#N)c(-c1ccc(NS(=O)(=O)CC)cc1)n2C1CCC1"
readout_label = "IC50"
experimental_value = "0.5 to 2 µM"

[[record]]
molecule = "CCCOc1ccc2c(C#N)c(-c3ccc(NC(=O)NC4CC4)cc3)n(C(C)C)c2c1"
readout_label = "IC50"
experimental_value = "< 0.5 µM"

[[record]]
molecule = "CCOc1ccc2c(C#N)c(-c3ccc(NC(=O)OC(C)C)cc3)n(CC3CCC3)c2c1"
readout_label = "IC50"
experimental_value = "< 0.5 µM"

